Measured Dissociation rate constant kd accompanies every entry in the list below.
Assay: Kinetics analysis of interaction between streptavidin protein and biotin using Biacore biosensor
Assay type: binding
Conditions: Biacore 3000, biotinylated mouse antibody captured, 1:1 binding model

These recorded examples may help you get a feel for the data.
INSERT INTO measurements (molecule, observed_measurement) VALUES
  ('mcSA124: mutant core streptavidin with Y22T, Y83A, R84K, E101D, R103K, E116N (protein) core streptavidin subunit: AEAGITGTWTNQLGSTFIVTAGADGALTGTYESAVGNAESRYVLTGRYDSAPATDGSGTALGWTVAWKNNAKNAHSATTWSGQYVGGADAKINTQWLLTSGTTNANAWKSTLVGHDTFTKVKPSAAS', '5.38 × 10^−5 S^−1'),
  ('mcSA424: mutant core streptavidin with Y22T, Y83S, R84K, E101D, R103K, E116Q (protein) core streptavidin subunit: AEAGITGTWTNQLGSTFIVTAGADGALTGTYESAVGNAESRYVLTGRYDSAPATDGSGTALGWTVAWKNNSKNAHSATTWSGQYVGGADAKINTQWLLTSGTTQANAWKSTLVGHDTFTKVKPSAAS', '1.12 × 10^−4 S^−1'),
  ('mcSA114: mutant core streptavidin with Y22S, Y83A, R84K, E101D, R103K, E116N (protein) core streptavidin subunit: AEAGITGTWSNQLGSTFIVTAGADGALTGTYESAVGNAESRYVLTGRYDSAPATDGSGTALGWTVAWKNNAKNAHSATTWSGQYVGGADAKINTQWLLTSGTTNANAWKSTLVGHDTFTKVKPSAAS', '9.92 × 10^−5 S^−1'),
  ('mcSA030: mutant core streptavidin with Y83S, R84K, E116N (protein) core streptavidin subunit: AEAGITGTWYNQLGSTFIVTAGADGALTGTYESAVGNAESRYVLTGRYDSAPATDGSGTALGWTVAWKNNSKNAHSATTWSGQYVGGAEARINTQWLLTSGTTNANAWKSTLVGHDTFTKVKPSAAS', '1.55 × 10^−4 S^−1');

Exercise: May I ask what Dissociation rate constant kd has been recorded for mcSA314: mutant core streptavidin with Y22S, Y83S, R84K, E101D, R103K, E116N (protein) core streptavidin subunit: AEAGITGTWSNQLGSTFIVTAGADGALTGTYESAVGNAESRYVLTGRYDSAPATDGSGTALGWTVAWKNNSKNAHSATTWSGQYVGGADAKINTQWLLTSGTTNANAWKSTLVGHDTFTKVKPSAAS ?
Key: 1.58 × 10^−4 S^−1

Exercise: May I ask what Dissociation rate constant kd has been recorded for mcSA324: mutant core streptavidin with Y22T, Y83S, R84K, E101D, R103K, E116N (protein) core streptavidin subunit: AEAGITGTWTNQLGSTFIVTAGADGALTGTYESAVGNAESRYVLTGRYDSAPATDGSGTALGWTVAWKNNSKNAHSATTWSGQYVGGADAKINTQWLLTSGTTNANAWKSTLVGHDTFTKVKPSAAS ?
Key: 7.18 × 10^−5 S^−1

Exercise: May I ask what Dissociation rate constant kd has been recorded for mcSA224: mutant core streptavidin with Y22T, Y83A, R84K, E101D, R103K, E116Q (protein) core streptavidin subunit: AEAGITGTWTNQLGSTFIVTAGADGALTGTYESAVGNAESRYVLTGRYDSAPATDGSGTALGWTVAWKNNAKNAHSATTWSGQYVGGADAKINTQWLLTSGTTQANAWKSTLVGHDTFTKVKPSAAS ?
Key: 1.01 × 10^−4 S^−1
